Target: 5-HT2A receptor (Homo sapiens)
Construct: expressed in transfected cells; host or cells: CHO cell line
Sequence (P28223 whole entry): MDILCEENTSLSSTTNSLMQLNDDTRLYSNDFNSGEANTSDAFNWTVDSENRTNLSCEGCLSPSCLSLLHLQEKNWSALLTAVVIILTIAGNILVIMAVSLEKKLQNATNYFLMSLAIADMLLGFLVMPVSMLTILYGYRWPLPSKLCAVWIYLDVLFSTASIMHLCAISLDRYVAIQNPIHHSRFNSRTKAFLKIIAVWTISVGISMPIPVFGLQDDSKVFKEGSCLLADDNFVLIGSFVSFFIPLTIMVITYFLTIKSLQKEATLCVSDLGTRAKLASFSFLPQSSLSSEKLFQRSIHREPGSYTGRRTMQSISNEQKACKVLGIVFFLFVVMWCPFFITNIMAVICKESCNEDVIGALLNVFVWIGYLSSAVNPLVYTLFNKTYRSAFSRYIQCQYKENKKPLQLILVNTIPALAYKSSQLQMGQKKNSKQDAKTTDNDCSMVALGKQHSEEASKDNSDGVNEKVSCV
Assay: Radioligand binding to the 5-HT2A receptor ([125I]-DOI, CHO cell line)
Conditions: [125I]-DOI, CHO cell line; read-out: Ki(2A)
Description: 1. Binding to Serotonin Receptors The binding of compounds of formula (I) to serotonin receptors was determined in vitro by standard methods. The preparations were investigated in accordance with the assays given hereinafter. Method (c): For the binding to the 5-HT2A receptor the 5-HT2A receptors were radiolabelled with [^125I]-DOI. […]
# key: entry, value: Ki
# number only, unit µM dropped from output

# annotated cases, reported Ki shown
• C[C@H](N)Cn1c2c(c3ccc(F)cc31)CCC2 = 0.55
• C[C@@H](N)Cn1c2c(c3cccc(Cl)c31)CCC2 = 0.167
• CCSc1ccc2c3c(n(C[C@H](C)N)c2c1)CCC3 = 0.545

# context switch: different molecule, same Ki
Exam item: Return reported Ki. Input molecule: `C[C@H](N)Cn1c2c(c3c(Cl)cc(Cl)cc31)CCC2`
Marked response: 0.144

Reference for the values: patent US6706750B1
